tested on: NCI-H2126; test: relative viability (nuclei count vs DMSO), 5 days (fraction); higher = more cells survive; details: first compound 0.1265 µM
measured.parameter: relative viability
Give bare numbers.

The examples below pair each entry with its known result.
O=C(O)c1ccc(-c2c[nH]c3ncc(-c4ccccc4)cc23)cc1C1CCCC1 + Cc1nc(NC(=O)N2CCC[C@H]2C(N)=O)sc1-c1ccnc(C(C)(C)C(F)(F)F)c1 [Alpelisib] (partner 2 µM)	0.76
O=C(O)c1ccc(-c2c[nH]c3ncc(-c4ccccc4)cc23)cc1C1CCCC1 + Cc1nc(Nc2ncc(C(=O)Nc3c(C)cccc3Cl)s2)cc(N2CCN(CCO)CC2)n1 [Dasatinib] (partner 0.075 µM)	0.634
O=C(O)c1ccc(-c2c[nH]c3ncc(-c4ccccc4)cc23)cc1C1CCCC1 + O=C(CCCCCCC(=O)Nc1ccccc1)NO [Vorinostat] (partner 1 µM)	0.755

Batch: relative viability for all items listed.
1. O=C(O)c1ccc(-c2c[nH]c3ncc(-c4ccccc4)cc23)cc1C1CCCC1 + NC(=O)Nc1cc(-c2cccc(F)c2)sc1C(=O)N[C@H]1CCCNC1 [AZD7762] (partner 0.2 µM)
2. O=C(O)c1ccc(-c2c[nH]c3ncc(-c4ccccc4)cc23)cc1C1CCCC1 + CC(=O)Nc1cccc(-n2c(=O)n(C3CC3)c(=O)c3c(Nc4ccc(I)cc4F)n(C)c(=O)c(C)c32)c1 [Trametinib] (partner 0.02 µM)
3. O=C(O)c1ccc(-c2c[nH]c3ncc(-c4ccccc4)cc23)cc1C1CCCC1 + Nc1nc2[nH]cc(CCc3ccc(C(=O)N[C@@H](CCC(=O)O)C(=O)O)cc3)c2c(=O)[nH]1 [Pemetrexed] (partner 0.2 µM)

Ans.
1: 1.11; 2: 0.585; 3: 0.66

====

system: Calu-6; test: relative viability (nuclei count vs DMSO), 5 days (fraction); higher = more cells survive; details: first compound 0.8 µM
measured.parameter: relative viability
Answers are plain numbers.

Each compound below has a reported value. Please supply its relative viability.
1. Oc1nc(-c2ccc(C(F)(F)F)cc2)nc2c1CSCC2 [XAV939] + C[C@@H](Oc1cc(-c2cnn(C3CCNCC3)c2)cnc1N)c1c(Cl)ccc(F)c1Cl [Crizotinib] (partner 1 µM)
2. C=C1C(=O)O[C@@H](CCCCCCCC)[C@@H]1C(=O)O [C-75] + CS(=O)(=O)CCNCc1ccc(-c2ccc3ncnc(Nc4ccc(OCc5cccc(F)c5)c(Cl)c4)c3c2)o1 [Lapatinib] (partner 2 µM)
3. C=C1C(=O)O[C@@H](CCCCCCCC)[C@@H]1C(=O)O [C-75] + CC(C)C[C@H](NC(=O)[C@H](Cc1ccccc1)NC(=O)c1cnccn1)B(O)O [Bortezomib] (partner 0.002 µM)
4. Oc1nc(-c2ccc(C(F)(F)F)cc2)nc2c1CSCC2 [XAV939] + CS(=O)(=O)CCNCc1ccc(-c2ccc3ncnc(Nc4ccc(OCc5cccc(F)c5)c(Cl)c4)c3c2)o1 [Lapatinib] (partner 2 µM)
5. C=C1C(=O)O[C@@H](CCCCCCCC)[C@@H]1C(=O)O [C-75] + O=C(c1cc(Cc2n[nH]c(=O)c3ccccc23)ccc1F)N1CCN(C(=O)C2CC2)CC1 [Olaparib] (partner 8 µM)
6. C=C1C(=O)O[C@@H](CCCCCCCC)[C@@H]1C(=O)O [C-75] + CS(=O)(=O)N1CCN(Cc2cc3nc(-c4cccc5[nH]ncc45)nc(N4CCOCC4)c3s2)CC1 [Pictilisib] (partner 1 µM)

Ans.
1. 0.7
2. 1.04
3. 1.02
4. 0.991
5. 0.522
6. 0.811

Below are 2 compounds. Give each one its relative viability.
1. C=C1C(=O)O[C@@H](CCCCCCCC)[C@@H]1C(=O)O [C-75] + C[C@@H](Oc1cc(-c2cnn(C3CCNCC3)c2)cnc1N)c1c(Cl)ccc(F)c1Cl [Crizotinib] (partner 1 µM)
2. Oc1nc(-c2ccc(C(F)(F)F)cc2)nc2c1CSCC2 [XAV939] + CS(=O)(=O)N1CCN(Cc2cc3nc(-c4cccc5[nH]ncc45)nc(N4CCOCC4)c3s2)CC1 [Pictilisib] (partner 1 µM)

Ans.
[0.711, 0.972]
